- assay_explanation: Hepatocyte stability assay, human
- Type: in vitro ADME, human (mixed gender)
- details: both sexes, pooled hepatocytes, 37° C.
- Description: Test and control compounds were incubated with hepatocytes at 37° C. Aliquots were removed at 6 timepoints over a one hour period. Samples were centrifuged and the supernatant fractions analysed for parent compound by mass spectrometry (LC-MS/MS). The amount of compound remaining (expressed as %) was determined from the MS response in each sample relative to that in the T=0 samples, and used to determine the half-life and intrinsic clearance of the compound.
measurement_label: hepatocyte CLint (µL/min/1e6 cells)

A = NC(=O)c1nc(-c2c(Cl)cccc2Cl)oc1Nc1ccc(C(=O)N2CCS(=O)(=O)CC2)c(F)c1
B = NC(=O)c1nc(-c2c(Cl)cccc2Cl)oc1Nc1ccc(C(=O)N2CCOCC2)cc1 [Comparative Compound B, reference compound]
*Q* Out of A and B , name the one with the higher hepatocyte CLint. Field: selected label. Fill in the label of the entry you choose.
*A* B

* * *

- subject_of_test: UniProt P10632
- Sequence (P10632 whole entry): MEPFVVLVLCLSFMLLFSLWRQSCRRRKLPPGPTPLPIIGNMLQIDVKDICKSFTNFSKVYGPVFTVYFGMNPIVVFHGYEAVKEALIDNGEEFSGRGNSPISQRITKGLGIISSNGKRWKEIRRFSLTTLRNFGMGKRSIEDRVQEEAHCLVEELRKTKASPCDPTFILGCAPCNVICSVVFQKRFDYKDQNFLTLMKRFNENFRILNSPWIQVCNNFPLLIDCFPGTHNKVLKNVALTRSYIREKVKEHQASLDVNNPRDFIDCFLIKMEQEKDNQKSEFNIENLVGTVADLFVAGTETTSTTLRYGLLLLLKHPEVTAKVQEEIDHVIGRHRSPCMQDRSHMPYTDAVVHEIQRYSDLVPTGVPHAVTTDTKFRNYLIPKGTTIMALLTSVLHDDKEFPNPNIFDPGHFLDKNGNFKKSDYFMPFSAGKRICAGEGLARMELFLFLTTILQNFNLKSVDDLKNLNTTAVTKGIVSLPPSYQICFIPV
measurement_label: IC50

*Q* Give measured IC50 for NC(=O)c1nc(-c2c(Cl)cccc2Cl)oc1Nc1ccc(C(=O)N2CCOCC2)cc1 [Comparative Compound B, reference compound] (UniProt P10632).
*A* > 8.2 µM

* * *

- subject_of_test: CYP2C19 (Homo sapiens)
- Sequence (P33261 whole entry): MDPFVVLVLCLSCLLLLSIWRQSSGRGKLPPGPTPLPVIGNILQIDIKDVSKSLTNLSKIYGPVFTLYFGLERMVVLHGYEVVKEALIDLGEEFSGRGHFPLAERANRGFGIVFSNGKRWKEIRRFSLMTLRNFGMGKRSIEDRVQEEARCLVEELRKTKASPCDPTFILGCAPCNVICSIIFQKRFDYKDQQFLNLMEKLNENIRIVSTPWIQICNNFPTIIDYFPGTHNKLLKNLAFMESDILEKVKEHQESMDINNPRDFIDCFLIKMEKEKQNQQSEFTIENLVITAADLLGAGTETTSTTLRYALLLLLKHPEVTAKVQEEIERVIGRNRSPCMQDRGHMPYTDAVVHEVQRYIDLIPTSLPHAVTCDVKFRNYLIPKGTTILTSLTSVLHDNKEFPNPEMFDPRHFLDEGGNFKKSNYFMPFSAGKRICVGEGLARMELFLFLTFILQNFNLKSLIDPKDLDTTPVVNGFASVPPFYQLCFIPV
measurement_label: IC50 (µM)
Kindly provide the numeric value in µM only, without the unit symbol.

*Q* Give measured IC50 for `NC(=O)c1nc(-c2c(Cl)cccc2Cl)oc1Nc1ccc(C(=O)N2CCS(=O)(=O)CC2)c(F)c1` (CYP2C19 (Homo sapiens)).
*A* 29

* * *

- Test system: pSTAT3 in HT29 cells
- assay_explanation: pSTAT3 inhibition in response to IL-22 stimulation in serum starved HT29 cells
- Assay type: cell-based
- details: Homo sapiens, HT-29, HT29 cells, 10 ng/ml human IL-22
pIC50: −log10 of the molar value.
measurement_label: pIC50

*Q* Answer with the recorded pIC50 of `NC(=O)c1nc(-c2c(Cl)cccc2Cl)oc1Nc1ccc(C(=O)N2CCS(=O)(=O)CC2)c(F)c1` only.
*A* 6.64

*Q* Answer with the recorded pIC50 of NC(=O)c1nc(-c2c(F)cccc2Cl)oc1Nc1ccc(C(=O)N2CCOCC2)cc1 [A, reference compound] only.
*A* 6.77
